Test system: St-HdhQ^111/111 cells
Assay: Glutamate-induced neuronal excitotoxicity assay
Format: cell-based
Details: STHdhQ111; 10 μM; 6 mM L-glutamate 24 hours; % of effect of 100 μM cysteamine; read-out: HdhQ^111/111 cell % survival (mean ± STD) Test Conc. 10 μM
# binning rule on viability at 10 µM: lower segment: < 5%; middle segment: ≥ 5% and < 10%; upper segment: ≥ 10%

[Q] Which class does C[C@@]1(S)CCCNC1 fall in?
[A] lower segment

[Q] Which class does SCC1CCNCC1 fall in?
[A] middle segment

[Q] Which class does N[C@H]1CCCC[C@@H]1S fall in?
[A] upper segment

[Q] Which class does CS(=O)(=O)N1CCNC(CS)C1 (centres unmarked) fall in?
[A] lower segment

[Q] Which class does S[C@@H]1CCNC1 fall in?
[A] middle segment

[Q] Which class does CN1CC[C@@H](S)C1 fall in?
[A] upper segment

[Q] Which class does C[N+]1(C)CCC(S)CC1 fall in?
[A] lower segment

[Q] Which class does CCOC(=O)C1(S)CCCNC1 (centres unmarked) fall in?
[A] middle segment

[Q] Which class does SCC1CCCNC1 (centres unmarked) fall in?
[A] middle segment

[Q] Which class does SC[C@H]1CCCCN1 fall in?
[A] upper segment

[Q] Which class does SC[C@@H]1CCCN1 (stereo in doubt) fall in?
[A] middle segment

[Q] Which class does SC1CC2CCC(C1)N2 (centres unmarked) fall in?
[A] lower segment

[Q] Which class does CCN1CCCC1 fall in?
[A] upper segment

[Q] Which class does N[C@@H]1CCCC[C@H]1S fall in?
[A] upper segment

[Q] Which class does SC1CCNCC1 fall in?
[A] upper segment

[Q] Which class does SC[C@H]1CCCN1 fall in?
[A] lower segment

[Q] Which class does OCCC1(S)CNC1 fall in?
[A] middle segment

[Q] Which class does N[C@H]1C[C@@H](CS)C1 fall in?
[A] upper segment

[Q] Which class does N[C@H]1C[C@@H](S)C1 fall in?
[A] middle segment

[Q] Which class does N[C@@H]1CCCC[C@@H]1S fall in?
[A] upper segment

[Q] Which class does C[C@]1(S)CCCNC1 fall in?
[A] lower segment

[Q] Which class does N[C@H]1C[C@H](S)C1 fall in?
[A] lower segment

[Q] Which class does CC1(S)CCNCC1 fall in?
[A] lower segment

[Q] Which class does FC1(F)CN[C@@H](CS)C1 fall in?
[A] upper segment

[Q] Which class does SC[C@@H]1CCCCN1 fall in?
[A] upper segment

[Q] Which class does SCC1CNC1 fall in?
[A] upper segment

[Q] Which class does S[C@@H]1CCCNC1 fall in?
[A] lower segment

[Q] Which class does C[C@H]1CNCC[C@@H]1S fall in?
[A] lower segment

[Q] Which class does CN1CC[C@H](S)C1 fall in?
[A] upper segment

[Q] Which class does F[C@@H]1CNCC[C@H]1S fall in?
[A] lower segment

[Q] Which class does OC1(CS)CCNCC1 fall in?
[A] upper segment

[Q] Which class does FC1(F)CN[C@H](CS)C1 fall in?
[A] upper segment
